Data provenance: PubChem BioAssay AID463173

Measured survival by item
- Tested on: DeltatarO mutant
- assay-procedure: S. aureus survival, RN4220 and DeltatarO strains – OD600, teichoic acid synthesis inhibitors, primary screen (AID 463173)
- recorded-conditions: S. aureus RN4220 wild type/DeltatarO growth, OD600, 18 h, stronger effect = lower value, screened at 18.75 µg/mL (by protocol)
Hit rate of the full screen: of about 52,000 compounds, about 4,300 (8.3%) were called active. For the sample, actives were picked, then their nearest neighbours and some compounds at random.
Enter your answer as a number in %; do not include the unit.

Example molecules with recorded survival:
# molecule, unit-label, survival
records = [
    ("CCN1CCN(c2ccc(NC(=O)COc3ccccc3)cc2)CC1", "%", 106),
    ("Cc1c(NC(=O)c2cc(-c3cccc(Cl)c3)on2)c(=O)n(-c2ccccc2)n1C", "%", 55),
    ("CCc1ccccc1NC(c1nnc(-c2cccc(F)c2)o1)c1ccc(F)cc1Cl (stereo not given)", "%", 96),
    ("COc1cccc(NC(c2nnc(-c3ccccc3)o2)c2ccc(F)cc2Cl)c1 (stereo not given)", "%", 54),
    ("Cc1c(NC(=O)c2cc(-c3ccc(Cl)c(Cl)c3)on2)c(=O)n(-c2ccccc2)n1C", "%", 38),
]

Task item: Name the reported survival value associated with the molecule `COc1ccc(-c2nc3ccccc3n3c(-c4ccc(OC)cc4)c4c(=O)n(C)c(=O)n(C)c4c23)cc1`
Reply: 84

Task item: Name the reported survival value associated with the molecule `CCc1ccccc1N(CC)C(=O)C1CCN(c2ncnc3c2nc2n3CCCCC2)CC1`
Reply: 83

Task item: Name the reported survival value associated with the molecule `Cc1c(NC(=O)c2cc(-c3ccc(O)cc3)on2)c(=O)n(-c2ccccc2)n1C`
Reply: 169

Task item: Name the reported survival value associated with the molecule `CCOc1ccc(NC(=O)C(=O)NCCc2csc(-c3ccc(F)cc3)n2)cc1`
Reply: 82

Task item: Name the reported survival value associated with the molecule `COC(=O)c1c(NC(=O)c2nc(SCc3ccccc3C)ncc2Cl)sc2c1CCCC2`
Reply: 111

###

- Test system: DeltatarO mutant
- assay-procedure: S. aureus survival, RN4220 and DeltatarO strains – OD600, teichoic acid synthesis inhibitors, primary screen (AID 463173)
- recorded-conditions: S. aureus RN4220 wild type/DeltatarO growth, OD600, 18 h, screened at 18.75 µg/mL (by protocol)
The whole screen tested about 52,000 compounds, of which about 4,300 (8.3%) were called active. Cut-off read from the data, not from the text of the source: active = survival mostly below about 52% (no sharp cut-off); inactive = mostly above about 56%. For the sample, actives were picked, then their nearest neighbours and some compounds at random.
// allowed return values: T (active), F (inactive)

Example cases with answers are listed next.
# compound, label-value
rows = [
    ("Cc1cc(C)cc(OCC(=O)N(Cc2ccco2)Cc2ccccc2Cl)c1", "F"),
    ("CCc1ccc2oc(C(=O)N(Cc3cccc(Cl)c3)Cc3ccco3)c(C)c2c1", "F"),
    ("COc1cc(C2C(C(=O)c3ccco3)=C(O)C(=O)N2CCc2ccccc2)ccc1O (stereo not given)", "F"),
    ("COc1cccc(C(=O)N(Cc2cccc(Cl)c2)Cc2ccco2)c1", "F"),
    ("Cc1cccc(C(=O)N(Cc2ccco2)Cc2ccccc2F)c1", "F"),
]

Task item: For this compound, state the assay outcome: `Cc1ccc(CNC(=O)CSc2nc3ccsc3c(=O)n2-c2ccc(C(=O)O)cc2)cc1`
Reply: F

Task item: For this compound, state the assay outcome: `Cc1cc2oc(C(=O)N(Cc3ccco3)Cc3ccccc3Cl)c(C)c2cc1C`
Reply: T

Task item: For this compound, state the assay outcome: `COC(=O)c1ccccc1NC(=O)CSc1n[nH]c(CC(C)C)n1`
Reply: F

Task item: For this compound, state the assay outcome: `CCN(CC)c1ccc(NC(=O)c2cc(C)nc3c2c(C)nn3-c2cccc(F)c2)c(C)c1`
Reply: F

Task item: For this compound, state the assay outcome: `Cc1ccc(-n2c(=O)c3ccc(C(=O)NCc4ccccc4Cl)cc3n(CC(=O)Nc3ccc(C)cc3C)c2=O)cc1`
Reply: F
